Reference for the values: patent US7169931B2

Collected pEC50 values appear next to each entry.
- experimental.target: human TPO receptor (Homo sapiens)
- Sequence (P40238 26-635): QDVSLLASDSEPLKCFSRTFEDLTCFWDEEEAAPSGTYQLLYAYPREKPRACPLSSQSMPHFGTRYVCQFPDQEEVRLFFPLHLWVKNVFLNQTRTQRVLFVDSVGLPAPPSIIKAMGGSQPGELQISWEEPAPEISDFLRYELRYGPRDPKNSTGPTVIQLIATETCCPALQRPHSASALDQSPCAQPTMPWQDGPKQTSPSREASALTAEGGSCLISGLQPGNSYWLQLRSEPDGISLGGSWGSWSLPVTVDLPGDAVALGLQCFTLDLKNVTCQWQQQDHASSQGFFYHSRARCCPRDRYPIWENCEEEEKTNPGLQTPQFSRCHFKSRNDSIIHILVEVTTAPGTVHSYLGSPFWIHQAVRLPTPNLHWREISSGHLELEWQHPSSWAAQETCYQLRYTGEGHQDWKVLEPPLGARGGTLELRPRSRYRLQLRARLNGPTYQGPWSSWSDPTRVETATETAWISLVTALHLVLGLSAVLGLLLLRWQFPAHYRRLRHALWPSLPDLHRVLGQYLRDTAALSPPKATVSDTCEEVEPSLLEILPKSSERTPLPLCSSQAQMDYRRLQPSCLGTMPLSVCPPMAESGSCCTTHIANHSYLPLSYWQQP
- protocol.summary: Thrombopoietic activity: proliferation of TPO dependent BaF/hTPOR cells (WST-1)
- condition.info: BaF/hTPOR cell line (BaF-B03 with human TPO receptor), without IL-3; 20 hours incubation + 4 hours WST-1, absorbance 450 nm; ED50 = half concentration of the concentration showing maximum thrombopoietic activity
Give only the number. pEC50 is defined as minus log10 of concentration in molar units.

Solved entries (count: 4):
- compound: "O=C(Nc1nc(-c2ccc(Cl)c(Cl)c2)cs1)c1ccc2oc(C(=O)O)cc2c1"
  experimental.target: "human TPO receptor (Homo sapiens)"
  pEC50: 6.00
- compound: "CCCCCc1cc(-c2csc(NC(=O)c3ccc4c(c3)CCC(C(=O)O)C4)n2)ccc1F (centres unmarked)"
  experimental.target: "human TPO receptor (Homo sapiens)"
  pEC50: 7.18
- compound: "O=C(Nc1nc(-c2cccc(C(F)(F)F)c2F)cs1)c1ccc2c(c1)CCC(C(=O)O)C2 (centres unmarked)"
  experimental.target: "human TPO receptor (Homo sapiens)"
  pEC50: 7.16
- compound: "O=C(Nc1nc(-c2ccc(Cl)c(Cl)c2)cs1)c1ccc2c(c1)CCC(F)(C(=O)O)C2 (centres unmarked)"
  experimental.target: "human TPO receptor (Homo sapiens)"
  pEC50: 6.83

*Q* I'm curious: which pEC50 was measured for CC(C)c1cccc(-c2csc(NC(=O)c3ccc4c(c3)CCC(C(=O)O)C4)n2)c1F (centres unmarked) tested on human TPO receptor (Homo sapiens)?
*A* 7.18

*Q* I'm curious: which pEC50 was measured for CCCc1c(Br)ccc(-c2csc(NC(=O)c3ccc4c(c3)CCC(C(=O)O)C4)n2)c1F (centres unmarked) tested on human TPO receptor (Homo sapiens)?
*A* 7.31

*Q* I'm curious: which pEC50 was measured for `O=C(O)c1ccc2sc(C(=O)Nc3nc(-c4ccc(Cl)c(Cl)c4)cs3)cc2c1` tested on human TPO receptor (Homo sapiens)?
*A* 4.78

*Q* I'm curious: which pEC50 was measured for `O=C(O)c1ccc2cc(C(=O)Nc3nc(-c4ccc(Cl)c(Cl)c4)cs3)ccc2c1` tested on human TPO receptor (Homo sapiens)?
*A* 7.64
